Target or system: T1, recombinant hMCAM-His (human, UniProt P43121 24-559)
T1 construct: not shown: His tag
T1 chain: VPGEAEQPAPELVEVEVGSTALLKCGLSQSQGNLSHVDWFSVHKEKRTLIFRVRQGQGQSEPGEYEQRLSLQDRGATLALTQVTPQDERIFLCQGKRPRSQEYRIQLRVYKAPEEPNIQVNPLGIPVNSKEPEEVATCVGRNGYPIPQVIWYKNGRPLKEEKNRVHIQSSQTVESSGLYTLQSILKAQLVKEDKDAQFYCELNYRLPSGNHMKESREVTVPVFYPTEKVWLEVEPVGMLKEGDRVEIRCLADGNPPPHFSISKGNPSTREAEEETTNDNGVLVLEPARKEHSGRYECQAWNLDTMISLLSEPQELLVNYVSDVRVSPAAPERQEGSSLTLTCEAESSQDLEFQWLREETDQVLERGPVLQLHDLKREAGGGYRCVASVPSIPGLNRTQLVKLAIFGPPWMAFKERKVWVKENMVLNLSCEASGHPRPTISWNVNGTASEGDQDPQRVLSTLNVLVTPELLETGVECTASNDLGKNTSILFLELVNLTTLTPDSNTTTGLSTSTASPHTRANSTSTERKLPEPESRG
Test summary: competitive ELISA on hMCAM-His, competitor biotinylated rodent or chimeric 2107; vs rodent 2107
Give measured fold over rodent (competitive ELISA) for each item. Keep answers brief.
Supply the numeric figure in fold, leaving out any unit text.

Ask: // returns reported fold over rodent (competitive ELISA) for input rat anti-human MCAM monoclonal antibody clone 2107.4.10 (antibody, V domains shown, rat hybridoma antibody; elsewhere '83 or 84'); also called rodent 2107; murine 2107.4.10.18 anti-MCAM antibody) VH: QVQLKESGPGLVQSSQTLSLTCTVSGFSLTSNGVSWVRQPPGKGLEWIAAISSGGSTYYNSAFKSRLSISRNTSKSQVLLKMNSLQTEDTGMYFCARHRPFYFDYWGQGVMVTVSS VL: DIQVTQSPSLLSASVGDRVTLNCKGSQNIYKSLAWFRLKRGEAPKLLIYDANSLQTGIPSRFSGSGSGTDFTLTITSLQPEDVATYFCQQYYSGYTFGAGTKLELK
Result: 1

Ask: What do we get for h2107_VH6 + h2107_VL2 (antibody, human IgG1, V domains shown) VH: QVTLKESGPVLVKPTETLTLTCTVSGFSLTSNAVSWVRQPPGKALEWIAAISSGGSTYYNSAFKSRLTISRDTSKSQVVLTMTNMDPVDTATYYCARHRPFYFDYWGQGTLVTVSS VL: DIQMTQSPSSLSASVGDRVTITCKGSQNIYKSLAWFQLKPGKVPKLLIYDANSLQTGIPSRFSGSGSGTDFTLTISSLQPEDVATYYCQQYYSGYTFGGGTKVEIK ?
Result: 3.5

Ask: Also h2107_VH6 + h2107_VL1 (antibody, human IgG1, V domains shown) VH: QVTLKESGPVLVKPTETLTLTCTVSGFSLTSNAVSWVRQPPGKALEWIAAISSGGSTYYNSAFKSRLTISRDTSKSQVVLTMTNMDPVDTATYYCARHRPFYFDYWGQGTLVTVSS VL: DIQMTQSPSSLSASVGDRVTITCKGSQNIYKSLAWFQQKPGKVPKLLIYDANSLQTGIPSRFSGSGSGTDFTLTISSLQPEDVATYYCQQYYSGYTFGGGTKVEIK , if possible.
Result: 15.3

Ask: Check h2107_VH5 + h2107_VL3 (antibody, human IgG1, V domains shown) VH: QVTLKESGPVLVKPTETLTLTCTVSGFSLTSQGVSWVRQPPGKALEWIAAISSGGSTYYNSAFKSRLTISPDTSKSQVVLTMTNMDPVDTATYYCARHRPFYFDYWGQGTLVTVSS VL: DIQMTQSPSSLSASVGDRVTINCKGSQNIYKSLAWFQQKPGKVPKLLIYDANSLQTGIPSRFSGSGSGTDFTLTISSLQPEDVATYYCQQYYSGYTFGGGTKVEIK too.
Result: 3.4

Ask: Next record, please: h2107_VH2 + h2107_VL2 (antibody, human IgG1, V domains shown, also called h2107VH2VL2; VH2VL2) VH: QVTLKESGPVLVKPTETLTLTCTVSGFSLTSNGVSWVRQPPGKALEWIAAISSGGSTYYNSAFKSRLSISRDTSKSQVVLTMTNMDPVDTATYYCARHRPFYFDYWGQGTLVTVSS VL: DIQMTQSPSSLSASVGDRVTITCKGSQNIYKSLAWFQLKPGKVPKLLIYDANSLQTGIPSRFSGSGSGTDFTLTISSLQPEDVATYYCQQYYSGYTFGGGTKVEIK
Result: 1.3

Ask: Same question, h2107_VH1 + h2107_VL2 (antibody, human IgG1, V domains shown, also called VH1VL2) VH: QVTLKESGPVLVKPTETLTLTCTVSGFSLTSNGVSWVRQPPGKALEWIAAISSGGSTYYNSAFKSRLTISRDTSKSQVVLTMTNMDPVDTATYYCARHRPFYFDYWGQGTLVTVSS VL: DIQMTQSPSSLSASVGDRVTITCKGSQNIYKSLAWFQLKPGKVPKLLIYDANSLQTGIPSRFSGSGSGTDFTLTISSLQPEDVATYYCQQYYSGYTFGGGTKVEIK this time
Result: 1.4

// data source = patent US20150239980A1
